test system: carbapenemase producing K. pneumoniae; test: MIC by broth micro-dilution (CLSI), carbapenemase producing K. pneumoniae; assay type: cell-based, Klebsiella pneumoniae; details: Klebsiella pneumoniae, ATCCBAA1705, KPC-2 K. pneumoniae ATCC BAA-1705; read-out: MIC
result.type: MIC (µg/mL)

(a) C[C@@H](NC(=O)Cn1nnnc1N(C)C)[C@H]1C(=O)N2C(C(=O)O)=C(S[C@@H]3CN[C@H](C(=O)N(C)C)C3)[C@H](C)[C@H]12
(b) C[C@@H](NC(=O)CC1CNC1)[C@H]1C(=O)N2C(C(=O)O)=C(S[C@@H]3CN[C@H](C(=O)N4CC[C@@H](N)C4)C3)[C@H](C)[C@H]12
# input Sorting ascending by MIC, which comes first: a or b ? Answer = label.
# output b
(b: 2 µg/mL, a: 4 µg/mL)

(P) CNCC(=O)N[C@H](C)[C@H]1C(=O)N2C(C(=O)O)=C(S[C@@H]3CN[C@H](C(=O)N4C[C@@H](N)C[C@H]4CNS(N)(=O)=O)C3)[C@H](C)[C@H]12
(Q) CCOC(=S)N[C@H](C)[C@H]1C(=O)N2C(C(=O)O)=C(S[C@@H]3CN[C@H](C(=O)N(C)C)C3)[C@H](C)[C@H]12
# input Between the entries labelled P and Q , which has a larger MIC value on record? Answer = label.
# output Q

(A) C[C@@H](NC(=O)CN1CCC(F)(F)C1)[C@H]1C(=O)N2C(C(=O)O)=C(S[C@@H]3CN[C@H](C(=O)N(C)C)C3)[C@H](C)[C@H]12
(B) C[C@@H](NS(C)(=O)=O)[C@H]1C(=O)N2C(C(=O)O)=C(S[C@@H]3CN[C@H](C(=O)N4CCC(N)C4)C3)[C@H](C)[C@H]12 (stereo in doubt)
(C) COC(=S)N[C@H](C)[C@H]1C(=O)N2C(C(=O)O)=C(S[C@@H]3CN[C@H](C(=O)N(C)C)C3)[C@H](C)[C@H]12
(D) C[C@@H](NC(=O)Cn1cnnn1)[C@H]1C(=O)N2C(C(=O)O)=C(S[C@@H]3CN[C@H](C(=O)N4C[C@@]56CNCC5C[C@@H]4C6)C3)[C@H](C)[C@H]12 (some centres unmarked)
# input Arrange the 4 entries by MIC so the values rise. Enter labels, ranked according to the request.
# output D, B, C, A
(D: 0.5 µg/mL, B: 4 µg/mL, C: 16 µg/mL, A: 64 µg/mL)
